Definition: the class of an entry is the range in range A (below 90 °C), range B (90 °C to below 200 °C), range C (200 °C or more) that contains its melting point.

- CNc1cccc2ccccc12: range B
- CC1=C(C(=O)OC(C)C)C(c2ccc3c(c2)OCO3)NC(=O)N1 (centres undefined): range B
- CCCCC1CO1 (centres undefined): range B
- CC(=O)c1ccc2c(c1)OCCO2: range A
- COc1ccc2c3c([nH]c2c1)C1CC2C(CC(O)C(OC)C2C(=O)O)CN1CC3 (centres undefined): range C
- C=C(C)C(=O)O: range A
- O=C(OCCOCCOC(=O)c1ccccc1)c1ccccc1: range A
- N#C/C(=N/Nc1ccccc1)c1nc(-c2ccccc2)cs1: range B
- CC(=O)OC1CCC2(C)C(CCC3C2CCC2(C)C3CCC23OCCO3)C1 (centres undefined): range B
- COc1cccc(C(=O)CBr)c1: range A
- COC(=O)c1ccc(C(=O)OC)o1: range B
- Cc1nc2ccccc2n1CCC(=O)NN1C(=O)CSC1c1ccccc1Cl (centres undefined): range C
- O=C(Cl)c1ccc2nsnc2c1: range B

====

melting point for assorted compounds
quantityMeasured: melting point

• CCOc1cccc(OCC(F)(F)F)c1C#N = 78 to 80 °C
• Sc1ccncc1 = 182 to 189 °C
• CCc1ccc(O)c(C(C)=O)c1O = 130 to 131 °C
• Cc1cc2c(c(C)c1C)C(=O)C2 = 103 °C
• Cc1nc(-c2ccc(C(F)(F)F)cc2)sc1C(=O)Cl = 85 to 86 °C
• COc1c(Br)ccc2c1C(=NNc1ccc([N+](=O)[O-])cc1[N+](=O)[O-])C2 = 309 to 310 °C

====

quantityMeasured: melting point

- COc1ccc(OCCBr)cc1: 46 to 50 °C
- NC(=O)Nc1ccccn1: 173 to 175 °C
- N[C@H](c1ccccc1)[C@H](N)c1ccccc1: 81 to 84 °C
- Cc1cnc(Cl)c(N)c1: 82 to 87 °C
- Brc1c[nH]cn1: 126 to 132 °C

====

Collected melting point values appear next to each entry.
quantityMeasured: melting point

• CC(O)(c1cc2ccccc2o1)c1cc2ccccc2o1 = 91 to 92 °C
• CSc1nc(N)nc(-c2ccccn2)n1 = 193 to 196 °C
• CCCCCCCCCCCCCCCC(=O)OC1CCC2(C)C(=CCC3C2CCC2(C)C(C(C)CCCC(C)C)CCC32)C1 (stereo not given) = 75 to 77 °C
• NNC(=O)c1ccc[nH]1 = 232 to 235 °C
• O=C(Cl)c1cnn(-c2ccc([N+](=O)[O-])cc2)c1C(F)(F)F = 77 to 79 °C

====

Reported melting point values follow for various compounds
quantityMeasured: melting point

- Cc1c(C(=O)O)sc2ccc(Cl)cc12: 290 to 292 °C
- O=C(O)c1cccc(-n2cccn2)c1: 154 to 156 °C
- CCOC(=O)C1=C(C)NC(=O)NC1c1cccc(OC)c1OC (stereo not drawn): 195 °C

====

Here the recorded melting point is given for each entry.
quantityMeasured: melting point

- O=C(O)C(=O)CBr: 79 to 82 °C
- Cn1cnc2c(NCc3ccccc3)nc(NCCO)nc21: 120 to 130 °C
- Cc1ccc(C)n1-c1cc(Cl)c([N+](=O)[O-])cc1Cl: 82 to 84 °C
- Cc1cc(C=O)nn1C: 56 to 57 °C
- Cn1nc(-c2cccs2)cc1C=O: 76 to 77 °C
- CO[C@](C(=O)O)(c1ccccc1)C(F)(F)F: 44 °C
- O=C(O)c1cc([N+](=O)[O-])cnc1O: 246 °C
- CC1OC(OC2C(Oc3cc(O)c4c(c3)OC(c3ccc(O)cc3)CC4=O)OC(CO)C(O)C2O)C(O)C(O)C1O (stereo not drawn): 166 °C

The reported numbers originate from a melting point compilation (Tetko et al.).
